assay: CellTiter Glo cell viability assay, BXPC3 cells; details: human, BXPC3 pancreatic cancer cells, BXPC3 Cell Viability, vehicle alone 1600 μM
property_label: viability at 24 h, 1600 μM

OCCNCCO 85 to 95%
NC(CO)(CO)CO > 95%
CCN(CC)CC > 95%
NCCCC[C@H](N)C(=O)O > 95%
NCCN 70 to 85%
C1CNCCN1 85 to 95%

Attention now turns to another entry.
Please supply the value of reported viability at 24 h, 1600 μM for the item `NCCO`
85 to 95%

###

Assay: CellTiter Glo cell viability assay, BXPC3 cells
Conditions: human, BXPC3 Cell Viability, vehicle alone 800 μM
Experimental: Two types of human tumor cells were used in this investigation: BXPC3 human pancreatic cancer cells and A2780 human ovarian cancer cells. The BXPC3 cells were originally obtained from American Type Cell Culture (ATCC). […] The number of cells targeted for the study was 4×10^3 per well in 100 μL of medium. The actual number of cells were counted and seeded in the wells of a 96 well-plate. […]
property_label: viability at 24 h, 800 μM

Please supply the value of reported viability at 24 h, 800 μM for the item `CCNCC`
> 95%
